System: K98450-129-R-PDC complex spheroid growth, percent test/control
Test: Anticancer human tumor K98450-129-R-PDC patient-derived colon adenocarcinoma cell line growth inhibition [RAS]
Details: second compound 0.000949 µM; first compound 0.1 µM; active compounds read low
Text: RAS pathway inhibitors in Combinations in Complex Spheroids A high-throughput screen of multi-cell type tumor spheroids was designed to identify active combinations of RAS pathway inhibitors and targeted small molecules. Complex spheroids include a stromal component modeled by human endothelial cells (HUVEC) and fibroblasts modeled by human mesenchymal stem cells (MSCs). […] Compounds. […] If the clinical Cmax for an agent had not been determined, the highest concentration tested was 10 microM. […]
# viability, T/C annotations
Report as a plain number; the unit % is understood.

Qu. Please supply the value of reported viability, T/C for the item Cc1nc(N2CCC3(CC2)COC(C)C3N)c(CO)nc1Sc1ccnc(N)c1Cl (centres undefined) + CCn1c(-c2cccnc2C(C)OC)c2c3cc(ccc31)N1CCOC(CC(NC(=O)C(C(C)C)N(C)C(=O)C3(F)CCN(C(=O)C#CC(C)(C)N(C)C)CC3)C(=O)N3CCCC(N3)C(=O)OCC(C)(C)C2)C1
Ans. 64.7

Qu. Please supply the value of reported viability, T/C for the item CCN1CCN(Cc2ccc(Nc3ncc(F)c(-c4cc(F)c5nc(C)n(C(C)C)c5c4)n3)nc2)CC1 + CCn1c(-c2cccnc2C(C)OC)c2c3cc(ccc31)N1CCOC(CC(NC(=O)C(C(C)C)N(C)C(=O)C3(F)CCN(C(=O)C#CC(C)(C)N(C)C)CC3)C(=O)N3CCCC(N3)C(=O)OCC(C)(C)C2)C1
Ans. 54.4

Qu. Please supply the value of reported viability, T/C for the item CC(=O)OC12COC1CC(O)C1(C)C(=O)C(O)C3=C(C)C(OC(=O)C(O)C(NC(=O)OC(C)(C)C)c4ccccc4)CC(O)(C(OC(=O)c4ccccc4)C21)C3(C)C (centres undefined) + CCn1c(-c2cccnc2C(C)OC)c2c3cc(ccc31)N1CCOC(CC(NC(=O)C(C(C)C)N(C)C(=O)C3(F)CCN(C(=O)C#CC(C)(C)N(C)C)CC3)C(=O)N3CCCC(N3)C(=O)OCC(C)(C)C2)C1
Ans. 66.1

Qu. Please supply the value of reported viability, T/C for the item C=CC(=O)Nc1cc(Nc2nccc(-c3cn(C)c4ccccc34)n2)c(OC)cc1N(C)CCN(C)C + CCn1c(-c2cccnc2C(C)OC)c2c3cc(ccc31)N1CCOC(CC(NC(=O)C(C(C)C)N(C)C(=O)C3(F)CCN(C(=O)C#CC(C)(C)N(C)C)CC3)C(=O)N3CCCC(N3)C(=O)OCC(C)(C)C2)C1
Ans. 44.5

====

Tested on: K98450-129-R-PDC complex spheroid growth, percent test/control
Assay: Anticancer human tumor K98450-129-R-PDC cell line growth inhibition [RAS];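 also: luminescence used as a proxy for viable cell amount; spheroids exposed to agents for seven days before the viability readout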
Conditions: second compound 0.01 µM; first compound 10 µM; active compounds read low
MEASUREMENT NAME: viability, T/C (%)
Report as a plain number; the unit % is understood.

// known answers, use as guide
{"columns": ["COMPOUND", "REPORTED VALUE"],
 "data": [
  ["NC1c2ccccc2OC12CCN(c1cnc3c(N4CCCc5ncccc54)n[nH]c3n1)CC2 (centres undefined) + C=CC(=O)N1CCN(c2nc(OCC3CCCN3C)nc3c(F)c(-c4nc(N)cc(C)c4C(F)(F)F)c(Cl)cc23)C(C)C1", 4.84],
  ["C[C@@H](NC(=O)c1ncnc(N)c1Cl)c1ncc(C(=O)Nc2cc(C(F)(F)F)c(Cl)cn2)s1 + C=CC(=O)N1CCN(c2nc(OCC3CCCN3C)nc3c(F)c(-c4nc(N)cc(C)c4C(F)(F)F)c(Cl)cc23)C(C)C1", 80.1],
  ["CC(C)NCC(C(=O)N1CCN(c2ncnc3c2C(C)CC3O)CC1)c1ccc(Cl)cc1 (centres undefined) + C=CC(=O)N1CCN(c2nc(OCC3CCCN3C)nc3c(F)c(-c4nc(N)cc(C)c4C(F)(F)F)c(Cl)cc23)C(C)C1", 85.3]
]}

Now look at this entry.
Qu. Please supply the value of reported viability, T/C for the item CC(=O)OC12COC1CC(O)C1(C)C(=O)C(O)C3=C(C)C(OC(=O)C(O)C(NC(=O)OC(C)(C)C)c4ccccc4)CC(O)(C(OC(=O)c4ccccc4)C21)C3(C)C (centres undefined) + C=CC(=O)N1CCN(c2nc(OCC3CCCN3C)nc3c(F)c(-c4nc(N)cc(C)c4C(F)(F)F)c(Cl)cc23)C(C)C1
Ans. 19.8

Provenance of the data: PubChem BioAssay AID2060891
